MEASUREMENT TARGET: Protein farnesyltransferase (Rattus norvegicus, UniProt Q02293+Q04631)
ASSAY SUMMARY: Inhibitory concentration against rat brain farnesyltransferase
MEASURE NAME: IC50 (µM)

Consider the following illustrative entries.
Item: C[C@H](NC(=O)[C@H](Cc1c[nH]c2ccccc12)NC(=O)[C@@H](COCc1ccccc1)NC(=O)[C@@H](Cc1ccc(OCc2ccccc2)cc1)NC(=O)[C@@H](Cc1cnc[nH]1)NC(=O)OCc1ccccc1)C(N)=O | IC50: 8.7

Sure, the documented IC50 for C[C@H](NC(=O)[C@@H](Cc1c[nH]c2ccccc12)NC(=O)[C@@H](CCC(=O)O)NC(=O)[C@@H](Cc1ccc(OCc2ccccc2)cc1)NC(=O)[C@@H](Cc1c[nH]cn1)NC(=O)OCc1ccccc1)C(N)=O is 0.2

[P] C[C@H](NC(=O)[C@@H](Cc1c[nH]c2ccccc12)NC(=O)[C@H](NC(=O)[C@@H](Cc1ccc(OCc2ccccc2)cc1)NC(=O)[C@@H](Cc1cnc[nH]1)NC(=O)OCc1ccccc1)[C@@H](C)OCc1ccccc1)C(N)=O
[Q] C[C@H](NC(=O)[C@@H](Cc1c[nH]c2ccccc12)NC(=O)[C@@H](CO)NC(=O)[C@@H](Cc1ccc(OCc2ccccc2)cc1)NC(=O)[C@@H](Cc1cnc[nH]1)NC(=O)OCc1ccccc1)C(N)=O
[R] C[C@H](NC(=O)[C@@H](Cc1c[nH]c2ccccc12)NC(=O)[C@@H](COCc1ccccc1)NC(=O)[C@@H](Cc1ccc(OCc2ccccc2)cc1)NC(=O)[C@@H](Cc1c[nH]cn1)NC(=O)OC1CCCCC1)C(N)=O
[S] C[C@@H](NC(=O)[C@H](Cc1c[nH]c2ccccc12)NC(=O)[C@H](COCc1ccccc1)NC(=O)[C@H](Cc1ccccc1)NC(=O)[C@H](Cc1c[nH]cn1)NC(=O)OCc1ccccc1)C(N)=O (single isomer, unassigned)
[in] Ordering criterion: IC50; begin with the maximum. Answer with the labels in sequence, matching the requested order.
[out] R, Q, P, S
(R: 3.8 µM, Q: 1.8 µM, P: 0.015 µM, S: 0.009 µM)

[P] CC(=O)N[C@H](Cc1cnc[nH]1)C(=O)N[C@H](Cc1ccc(OCc2ccccc2)cc1)C(=O)N[C@H](COCc1ccccc1)C(=O)N[C@H](Cc1c[nH]c2ccccc12)C(=O)N[C@@H](C)C(N)=O
[Q] C[C@H](NC(=O)[C@@H](Cc1c[nH]c2ccccc12)NC(=O)[C@@H](COCc1ccccc1)NC(=O)[C@@H](Cc1ccc(OCc2ccccc2)cc1)NC(=O)[C@H](N)Cc1cnc[nH]1)C(N)=O
[in] # min-compare on IC50 between P and Q # answer = label of selected item
[out] Q

---

MEASUREMENT TARGET: Protein farnesyltransferase (Rattus norvegicus, UniProt Q02293+Q04631)
ASSAY SUMMARY: Inhibition of rat brain farnesyltransferase in 5 mM potassium phosphate and 50 mM HEPES buffer
pIC50: −log10 of the molar value.
MEASURE NAME: pIC50

Data point: C[C@H](NC(=O)[C@@H](Cc1c[nH]c2ccccc12)NC(=O)[C@@H](COCc1ccccc1)NC(=O)[C@@H](Cc1ccc(OP(=O)(O)O)cc1)NC(=O)[C@@H](Cc1c[nH]cn1)NC(=O)OCc1ccccc1)C(N)=O ; pIC50 = 8.05

Reported pIC50 for CCOP(=O)(Cc1ccc(CC(NC(=O)[C@@H](Cc2cnc[nH]2)NC(=O)OCc2ccccc2)C(=O)N[C@H](COCc2ccccc2)C(=O)N[C@H](Cc2c[nH]c3ccccc23)C(=O)N[C@@H](C)C(N)=O)cc1)OCC (some centres undefined) was 7.31

[a] C[C@H](NC(=O)[C@@H](Cc1c[nH]c2ccccc12)NC(=O)[C@@H](COP(=O)(O)O)NC(=O)[C@@H](Cc1ccc(OCc2ccccc2)cc1)NC(=O)[C@@H](Cc1cnc[nH]1)NC(=O)OCc1ccccc1)C(N)=O
[b] C[C@@H](NC(=O)[C@H](Cc1c[nH]c2ccccc12)NC(=O)[C@H](COCc1ccccc1)NC(=O)[C@H](Cc1ccc(O)cc1)NC(=O)[C@H](Cc1c[nH]cn1)NC(=O)OCc1ccccc1)C(N)=O (single isomer, unassigned)
[in] Between the entries labelled a and b , which has a larger pIC50 value on record? # answer = label of selected item
[out] b
(b: 6.99, a: 6.44)

---

MEASUREMENT TARGET: Protein farnesyltransferase (Rattus norvegicus, UniProt Q02293+Q04631)
ASSAY SUMMARY: Inhibitory concentration against rat brain farnesyltransferase
MEASURE NAME: IC50 (nM)

[a] C[C@@H](NC(=O)[C@H](Cc1c[nH]c2ccccc12)NC(=O)[C@H](COCc1ccccc1)NC(=O)[C@H](Cc1ccc(O)cc1)NC(=O)[C@H](Cc1c[nH]cn1)NC(=O)OCc1ccccc1)C(N)=O (single isomer, unassigned)
[b] C[C@H](NC(=O)[C@@H](Cc1c[nH]c2ccccc12)NC(=O)[C@@H](COCc1ccccc1)NC(=O)[C@@H](Cc1ccc(OCc2ccccc2)cc1)NC(=O)[C@@H](Cc1cnc[nH]1)NC(=O)OCc1ccccc1)C(=O)NN
[c] C[C@H](NC(=O)[C@@H](Cc1c[nH]c2ccccc12)NC(=O)[C@@H](COCc1ccccc1)NC(=O)[C@@H](Cc1ccc(OCc2ccccc2)cc1)NC(=O)C(N)CCCNC(=O)OCc1ccccc1)C(N)=O (stereo not given in full)
[in] Put the items in sequence by IC50, from largest down. Please, when replying, give the labels in the order that was requested.
[out] c, b, a
(c: 4700 nM, b: 64 nM, a: 35 nM)

[1] C[C@H](NC(=O)[C@@H](Cc1c[nH]c2ccccc12)NC(=O)[C@@H](COCc1ccccc1)NC(=O)C(CC1CCCCC1)NC(=O)[C@@H](Cc1cnc[nH]1)NC(=O)OCc1ccccc1)C(N)=O (stereo not given in full)
[2] CC(NC(=O)[C@@H](Cc1ccc(OCc2ccccc2)cc1)NC(=O)[C@@H](Cc1c[nH]cn1)NC(=O)OCc1ccccc1)C(=O)N[C@H](Cc1c[nH]c2ccccc12)C(=O)N[C@@H](C)C(N)=O (stereo not given in full)
[in] Would you let me know which has the greater IC50 value, 1 or 2 ? Respond with the label that goes with your answer.
[out] 2

---

MEASUREMENT TARGET: Protein farnesyltransferase (Rattus norvegicus, UniProt Q02293+Q04631)
ASSAY SUMMARY: Inhibitory concentration against rat brain farnesyltransferase
MEASURE NAME: IC50 (µM)

The measured IC50 associated with C[C@@H](NC(=O)[C@H](Cc1c[nH]c2ccccc12)NC(=O)[C@H](COCc1ccccc1)NC(=O)[C@@H](Cc1ccc(O)cc1)NC(=O)[C@H](Cc1cnc[nH]1)NC(=O)OCc1ccccc1)C(N)=O (stereo in doubt) reads 0.17

[A] C[C@H](NC(=O)[C@@H](Cc1c[nH]c2ccccc12)NC(=O)[C@H](COCc1ccccc1)NC(=O)[C@@H](Cc1ccc(OCc2ccccc2)cc1)NC(=O)[C@@H](Cc1cnc[nH]1)NC(=O)OCc1ccccc1)C(N)=O
[B] C[C@H](NC(=O)C(Cc1ccccc1)NC(=O)[C@@H](COCc1ccccc1)NC(=O)[C@@H](Cc1ccc(OCc2ccccc2)cc1)NC(=O)[C@@H](Cc1cnc[nH]1)NC(=O)OCc1ccccc1)C(N)=O (stereo not given in full)
[C] C[C@H](NC(=O)[C@@H](Cc1c[nH]c2ccccc12)NC(=O)[C@@H](COCc1ccccc1)NC(=O)[C@H](CS)NC(=O)[C@@H](Cc1c[nH]cn1)NC(=O)OCc1ccccc1)C(N)=O
[in] Reorder: IC50, max to min. Arrange the labels as the request states and list them.
[out] A, C, B
(A: 13 µM, C: 4.9 µM, B: 2.5 µM)

---

Each entry below carries its recorded pIC50.
MEASUREMENT TARGET: Protein farnesyltransferase (Rattus norvegicus, UniProt Q02293+Q04631)
ASSAY SUMMARY: Inhibition of rat brain farnesyltransferase in 30 mM potassium phosphate buffer
Friendly reminder that pIC50 comes from taking -log10 of the concentration in mol/L.

GET /value?item= C[C@@H](NC(=O)[C@H](Cc1c[nH]c2ccccc12)NC(=O)[C@H](COCc1ccccc1)NC(=O)[C@H](Cc1ccc(OCc2ccccc2)cc1)NC(=O)[C@H](Cc1c[nH]cn1)NC(=O)OCc1ccccc1)C(N)=O (single isomer, unassigned) &field=pIC50 returns 7.70

Now look at this entry.
Per the records, this compound ( CCOP(=O)(Cc1ccc(CC(NC(=O)[C@@H](Cc2cnc[nH]2)NC(=O)OCc2ccccc2)C(=O)N[C@H](COCc2ccccc2)C(=O)N[C@H](Cc2c[nH]c3ccccc23)C(=O)N[C@@H](C)C(N)=O)cc1)OCC (some centres not stated) ) has pIC50 equal to 7.60
